# Test system: H9c2
# Assay comment: Cardiotoxicity against rat H9c2 cells assessed as LDH release at 5 uM incubated for 24 hrs
# Format: toxicity, cell-based
# Condition set: h9c2, 24 h
Assay readout: Activity

Recorded Activity of COc1cccc2c1C(=O)c1c(O)c3c(c(O)c1C2=O)C[C@@](O)(C(=O)CO)C[C@@H]3O[C@H]1C[C@H](N)[C@H](O)[C@H](C)O1 [DOXORUBICIN] , please.
Toxic

Recorded Activity of COc1cccc2c1C(=O)c1c(O)c3c(c(O)c1C2=O)C[C@@](O)(C(=O)COC(=O)c1ccc(CC(CO[N+](=O)[O-])O[N+](=O)[O-])cc1)C[C@@H]3O[C@H]1C[C@H](N)[C@H](O)[C@H](C)O1 (some centres undefined) , please.
Non-Toxic

Recorded Activity of COc1cccc2c1C(=O)c1c(O)c3c(c(O)c1C2=O)C[C@@](O)(C(=O)COC(=O)C(C)(C)CO[N+](=O)[O-])C[C@@H]3O[C@H]1C[C@H](N)[C@H](O)[C@H](C)O1.Cl , please.
Non-Toxic

Recorded Activity of COc1cccc2c1C(=O)c1c(O)c3c(c(O)c1C2=O)C[C@@](O)(C(=O)COC(=O)c1ccc(Oc2no[n+]([O-])c2S(=O)(=O)c2ccccc2)cc1)C[C@@H]3O[C@H]1C[C@H](N)[C@H](O)[C@H](C)O1.Cl , please.
Non-Toxic

====

# Assay comment: Prodrug release in human HT-29 cells assessed as increase in NO level by measuring nitrite release at 5 uM incubated for 24 hrs by spectrophotometric analysis
# Assay type: ADME, cell-based
# Condition set: ht-29, 24 h
Assay readout: Drug metabolism

Recorded Drug metabolism of COc1cccc2c1C(=O)c1c(O)c3c(c(O)c1C2=O)C[C@@](O)(C(=O)COC(=O)CCCCCO[N+](=O)[O-])C[C@@H]3O[C@H]1C[C@H](N)[C@H](O)[C@H](C)O1.Cl , please.
Metabolite_Detected

Recorded Drug metabolism of COc1cccc2c1C(=O)c1c(O)c3c(c(O)c1C2=O)C[C@@](O)(C(=O)COC(=O)c1ccc(C(=O)OCO/N=[N+](\[O-])N2CCCC2)cc1)C[C@@H]3O[C@H]1C[C@H](N)[C@H](O)[C@H](C)O1.Cl , please.
Metabolite_Detected

Recorded Drug metabolism of COc1cccc2c1C(=O)c1c(O)c3c(c(O)c1C2=O)C[C@@](O)(C(=O)CO)C[C@@H]3O[C@H]1C[C@H](N)[C@H](O)[C@H](C)O1 , please.
Metabolite_Detected

====

# Assay comment: Prodrug release in doxorubicin-resistant human HT-29 cells assessed as increase in NO level by measuring nitrite release at 5 uM incubated for 24 hrs by spectrophotometric analysis
# Type: ADME, cell-based
# Condition set: ht-29, 24 h
Assay readout: Drug metabolism

Some molecules with known Drug metabolism results, for comparison:
Recorded Drug metabolism of COc1cccc2c1C(=O)c1c(O)c3c(c(O)c1C2=O)C[C@@](O)(C(=O)COC(=O)CCCCCO[N+](=O)[O-])C[C@@H]3O[C@H]1C[C@H](N)[C@H](O)[C@H](C)O1.Cl , please.
Metabolite_Detected

Recorded Drug metabolism of COc1cccc2c1C(=O)c1c(O)c3c(c(O)c1C2=O)C[C@@](O)(C(=O)COC(=O)c1ccc(CCCO[N+](=O)[O-])cc1)C[C@@H]3O[C@H]1C[C@H](N)[C@H](O)[C@H](C)O1.Cl , please.
Metabolite_Detected

Recorded Drug metabolism of COc1cccc2c1C(=O)c1c(O)c3c(c(O)c1C2=O)C[C@@](O)(C(=O)COC(=O)C(C)(C)CO[N+](=O)[O-])C[C@@H]3O[C@H]1C[C@H](N)[C@H](O)[C@H](C)O1.Cl , please.
Metabolite_Detected

Recorded Drug metabolism of COc1cccc2c1C(=O)c1c(O)c3c(c(O)c1C2=O)C[C@@](O)(C(=O)COC(=O)c1ccc(Oc2no[n+]([O-])c2S(=O)(=O)c2ccccc2)cc1)C[C@@H]3O[C@H]1C[C@H](N)[C@H](O)[C@H](C)O1.Cl , please.
Metabolite_Detected

Recorded Drug metabolism of COc1cccc2c1C(=O)c1c(O)c3c(c(O)c1C2=O)C[C@@](O)(C(=O)COC(=O)CCCC(CO[N+](=O)[O-])O[N+](=O)[O-])C[C@@H]3O[C@H]1C[C@H](N)[C@H](O)[C@H](C)O1.Cl (some centres undefined) , please.
Metabolite_Detected

Recorded Drug metabolism of COc1cccc2c1C(=O)c1c(O)c3c(c(O)c1C2=O)C[C@@](O)(C(=O)COC(=O)c1ccc(OCCCO[N+](=O)[O-])cc1)C[C@@H]3O[C@H]1C[C@H](N)[C@H](O)[C@H](C)O1.Cl , please.
Metabolite_Detected

Others:
Recorded Drug metabolism of COc1cccc2c1C(=O)c1c(O)c3c(c(O)c1C2=O)C[C@@](O)(C(=O)COC(=O)c1ccc(C(=O)OCO/N=[N+](\[O-])N2CCCC2)cc1)C[C@@H]3O[C@H]1C[C@H](N)[C@H](O)[C@H](C)O1.Cl , please.
Metabolite_Detected

Recorded Drug metabolism of COc1cccc2c1C(=O)c1c(O)c3c(c(O)c1C2=O)C[C@@](O)(C(=O)COC(=O)c1ccc(OCC(CO[N+](=O)[O-])O[N+](=O)[O-])cc1)C[C@@H]3O[C@H]1C[C@H](N)[C@H](O)[C@H](C)O1.Cl (some centres undefined) , please.
Metabolite_Detected

Recorded Drug metabolism of COc1cccc2c1C(=O)c1c(O)c3c(c(O)c1C2=O)C[C@@](O)(C(=O)COC(=O)c1ccc(CC(CO[N+](=O)[O-])O[N+](=O)[O-])cc1)C[C@@H]3O[C@H]1C[C@H](N)[C@H](O)[C@H](C)O1 (some centres undefined) , please.
Metabolite_Detected

====

# Assay comment: Stability of the compound assessed as human serum esterase-mediated compound hydrolysis by measuring half life at 100 uM by RP-HPLC analysis
# Type: ADME, cell-free
Assay readout: half-life at 100 µM (h)

Some compounds with known half-life at 100 µM results, for comparison:
Recorded half-life at 100 µM of COc1cccc2c1C(=O)c1c(O)c3c(c(O)c1C2=O)C[C@@](O)(C(=O)COC(=O)c1ccc(CC(CO[N+](=O)[O-])O[N+](=O)[O-])cc1)C[C@@H]3O[C@H]1C[C@H](N)[C@H](O)[C@H](C)O1 (some centres undefined) , please.
16

Recorded half-life at 100 µM of COc1cccc2c1C(=O)c1c(O)c3c(c(O)c1C2=O)C[C@@](O)(C(=O)COC(=O)CCCCCO[N+](=O)[O-])C[C@@H]3O[C@H]1C[C@H](N)[C@H](O)[C@H](C)O1.Cl , please.
4.9

Recorded half-life at 100 µM of COc1cccc2c1C(=O)c1c(O)c3c(c(O)c1C2=O)C[C@@](O)(C(=O)COC(=O)c1ccc(OCCCO[N+](=O)[O-])cc1)C[C@@H]3O[C@H]1C[C@H](N)[C@H](O)[C@H](C)O1.Cl , please.
26.7

1 = COc1cccc2c1C(=O)c1c(O)c3c(c(O)c1C2=O)C[C@@](O)(C(=O)COC(=O)c1ccc(CCCO[N+](=O)[O-])cc1)C[C@@H]3O[C@H]1C[C@H](N)[C@H](O)[C@H](C)O1.Cl
2 = COc1cccc2c1C(=O)c1c(O)c3c(c(O)c1C2=O)C[C@@](O)(C(=O)COC(=O)c1ccc(C(=O)OCO/N=[N+](\[O-])N2CCCC2)cc1)C[C@@H]3O[C@H]1C[C@H](N)[C@H](O)[C@H](C)O1.Cl
# returns the entry with the larger half-life at 100 µM; inputs 1 and 2 Answer format: the label of the selected item.
1

====

# System: HT-29
# Assay comment: Induction of apoptosis in human HT29 cells assessed as activation of caspase 9 using LEHD-AMC substrate at 5 uM incubated for 24 hrs by fluorescence based assay
# Assay type: functional, cell-based
Active and inactive are the calls of the source. The calls are words filed in the database; no cut-off is given here.
I would appreciate it if you answered using one of these outcomes: y = active, n = inactive

Consider the following illustrative entries.
Hey, what did the test say about COc1cccc2c1C(=O)c1c(O)c3c(c(O)c1C2=O)C[C@@](O)(C(=O)COC(=O)c1ccc(Oc2no[n+]([O-])c2S(=O)(=O)c2ccccc2)cc1)C[C@@H]3O[C@H]1C[C@H](N)[C@H](O)[C@H](C)O1.Cl ?
y

Hey, what did the test say about COc1cccc2c1C(=O)c1c(O)c3c(c(O)c1C2=O)C[C@@](O)(C(=O)COC(=O)c1ccc(CC(CO[N+](=O)[O-])O[N+](=O)[O-])cc1)C[C@@H]3O[C@H]1C[C@H](N)[C@H](O)[C@H](C)O1 (stereo partly drawn) ?
y

Now let's try a different one.
Hey, what did the test say about COc1cccc2c1C(=O)c1c(O)c3c(c(O)c1C2=O)C[C@@](O)(C(=O)COC(=O)c1ccc(OCC(CO[N+](=O)[O-])O[N+](=O)[O-])cc1)C[C@@H]3O[C@H]1C[C@H](N)[C@H](O)[C@H](C)O1.Cl (stereo partly drawn) ?
n
